Molecular target: Type-1 angiotensin II receptor (Oryctolagus cuniculus, UniProt P34976)
Sequence (P34976 whole entry): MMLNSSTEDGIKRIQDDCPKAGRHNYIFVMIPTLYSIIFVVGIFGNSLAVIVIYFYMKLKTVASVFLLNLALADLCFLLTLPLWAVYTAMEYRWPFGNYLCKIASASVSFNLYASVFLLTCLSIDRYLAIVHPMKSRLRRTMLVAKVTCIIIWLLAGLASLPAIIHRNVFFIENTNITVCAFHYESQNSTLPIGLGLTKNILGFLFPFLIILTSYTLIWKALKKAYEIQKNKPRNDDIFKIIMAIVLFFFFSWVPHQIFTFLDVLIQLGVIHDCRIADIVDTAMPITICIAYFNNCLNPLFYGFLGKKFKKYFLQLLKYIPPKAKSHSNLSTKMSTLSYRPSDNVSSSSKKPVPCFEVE
endpoint name: IC50
Don't forget the unit after the value.

A selection of reference data follows.
Cn1nnnc1-c1ccccc1-c1ccc(Cn2cnc3ccc(N(Cc4ccc(C(=O)O)cc4)C(=O)c4ccccc4)cc3c2=O)cc1 = 6.5 nM
CCCCCN(C(=O)c1ccc(F)cc1)c1ccc2ncn(Cc3ccc(-c4ccccc4-c4nnnn4C)cc3)c(=O)c2c1 = 1.7 nM
CCCCN(C(=O)c1ccc(OP(=O)([O-])[O-])cc1)c1ccc2ncn(Cc3ccc(-c4ccccc4-c4nnnn4C)cc3)c(=O)c2c1.[Na+].[Na+] = 2.2 nM
COCCOCCN(C(=O)c1ccccc1)c1ccc2ncn(Cc3ccc(-c4ccccc4-c4nnnn4C)cc3)c(=O)c2c1 = 2.2 nM
CCOC(=O)CCCN(C(=O)c1ccccc1)c1ccc2ncn(Cc3ccc(-c4ccccc4-c4nnnn4C)cc3)c(=O)c2c1 = 2.3 nM
CCOCCN(C(=O)c1ccccc1)c1ccc2ncn(Cc3ccc(-c4ccccc4-c4nnnn4C)cc3)c(=O)c2c1 = 1.6 nM

Input line: For CCCCCN(C(=O)c1ccncc1)c1ccc2ncn(Cc3ccc(-c4ccccc4-c4nnnn4C)cc3)c(=O)c2c1 , what is its reported IC50?
Output line: 2.8 nM

====

target: Angiotensin II receptor (Homo sapiens) (UniProt P30556+P50052); experiment: Ratio of receptor binding affinity AT2/AT1 in human adrenal tissue in th+e presence of 2 mg/ml bovine serum albumin; type: protein assay
param class (str): category from Ratio; see ranges label 0: < 0.8; label 1: ≥ 0.8 and < 2; label 2: ≥ 2

CCCCC(=O)N(Cc1ccccc1)c1ccc2ncn(Cc3ccc(-c4ccccc4-c4nnnn4C)cc3)c(=O)c2c1 = label 0
COC(=O)c1ccc(CN(C(=O)c2ccccc2)c2ccc3ncn(Cc4ccc(-c5ccccc5-c5nnnn5C)cc4)c(=O)c3c2)cc1 = label 1
Cn1nnnc1-c1ccccc1-c1ccc(Cn2cnc3ccc(N(Cc4cccnc4)C(=O)c4ccccc4)cc3c2=O)cc1 = label 1
Cn1nnnc1-c1ccccc1-c1ccc(Cn2cnc3ccc(N(Cc4ccccn4)C(=O)c4ccncc4)cc3c2=O)cc1 = label 2
CCCCCN(C(=O)c1ccc(O)cc1)c1ccc2ncn(Cc3ccc(-c4ccccc4-c4nnnn4C)cc3)c(=O)c2c1 = label 2
CCCCCN(C(=O)c1ccccc1)c1ccc2ncn(Cc3ccc(-c4ccccc4-c4nnnn4C)cc3)c(=O)c2c1 = label 1
Cn1nnnc1-c1ccccc1-c1ccc(Cn2cnc3ccc(N(Cc4ccccn4)C(=O)c4ccco4)cc3c2=O)cc1 = label 0
Cn1nnnc1-c1ccccc1-c1ccc(Cn2cnc3ccc(N(Cc4ccccn4)C(=O)c4ccccc4)cc3c2=O)cc1 = label 0

Kindly review the next compound as well.
Input line: Hi there! Could you help me figure out the category for CCCCN(C(=O)c1ccc(O)cc1)c1ccc2ncn(Cc3ccc(-c4ccccc4-c4nnnn4C)cc3)c(=O)c2c1 please?
Output line: label 2
